system tested: T1, human IL-13 (human, UniProt P35225 25-146, limits assumed)
T1 construct: The KinExA antigen was detected with an anti-HIS IgG, so it probably carried a HIS tag; also called Interleukin-13; hIL-13
T1 sequence (P35225 other isoform, or with tags, fused parts or gaps limits assumed): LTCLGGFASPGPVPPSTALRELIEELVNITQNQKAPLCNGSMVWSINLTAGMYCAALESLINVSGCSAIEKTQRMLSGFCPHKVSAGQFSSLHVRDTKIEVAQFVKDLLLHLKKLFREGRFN
assay protocol: SPR array (Carterra LSA), antibody captured on anti-human pAb HC30M chip, human IL-13 0.05-100 nM as analyte, 25 C, 1:1 fit
measurement type: Kd (nM)

binder: NB-11 (antibody, human IgG4 S228P, kappa, V domains shown) VH: QVTLRESGPALVKPTQTLTLTCTVSGASLSAYSVNWIRQPPGKALEWLAMIWGDGTIVYNSALKSRLTISKDTSKNQVVLTMTNMDPVDTATYYCAGDGYFPYAMDNWGQGSLVTVSS VL: DIVMTQSPDSLSVSLGERATINCRASKSVDSYGHSFMHWYQQKPGQPPKLLIYLASNLESGVPDRFSGSGSGTDFTLTISSLQAEDVAVYYCQQNNEDPRTFGGGTKVEIKR
measurement type: Kd
quantitative readout: 0.97
